# system-name: JAK2 (Homo sapiens, UniProt O60674)
# Construct: 5 μl of catalytic domain recombinant Kinase enzyme+Tyr peptide substrate (Invitrogen, CA)
# Sequence (O60674 849-1124 limits assumed): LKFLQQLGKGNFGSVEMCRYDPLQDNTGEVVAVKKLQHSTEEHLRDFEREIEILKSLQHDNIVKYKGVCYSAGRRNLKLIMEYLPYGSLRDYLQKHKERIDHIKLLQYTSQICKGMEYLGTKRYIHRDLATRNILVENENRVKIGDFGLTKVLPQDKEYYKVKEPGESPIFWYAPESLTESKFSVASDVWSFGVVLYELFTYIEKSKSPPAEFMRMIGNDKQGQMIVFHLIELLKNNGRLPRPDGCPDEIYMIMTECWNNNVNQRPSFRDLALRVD
# test-method-notes: Z'-LYTE kinase assay JAK2
measured-metric: IC50

{"molecule": "CC(=O)N1CCC(CNc2cc(Nc3ccc(C(=O)N4CCC4)cc3)ncc2C(N)=O)CC1 [Example 50]", "result": "> 1000 nM"}
{"molecule": "NC(=O)c1cnc(Nc2ccc(C3CCNCC3)cc2)cc1NCc1cccc(F)c1F [Example 209]", "result": "10 to 100 nM"}
{"molecule": "CCC(=O)N1CCC(c2ccc(Nc3cc(N[C@H](C)C4CC4)c(C(N)=O)cn3)cc2)CC1 [Example 202]", "result": "100 to 1000 nM"}
{"molecule": "COc1ccc(Nc2cc(NC[C@H]3CCCN(S(C)(=O)=O)C3)c(C(N)=O)cn2)cc1 [Example 57]", "result": "100 to 1000 nM"}
{"molecule": "Cc1cccc(Nc2cc(Nc3ccc(OCCN4CCCC4)cc3)ncc2C(N)=O)c1 [Example 14]", "result": "100 to 1000 nM"}

Input: // lookup IC50 | system=JAK2 (Homo sapiens, UniProt O60674) | key= CC(=O)N1CCN(c2ccc(Nc3cc(NCc4ccccc4)c(C(N)=O)cn3)cc2)CC1 [Example 3]
Output: 10 to 100 nM

Input: // lookup IC50 | system=JAK2 (Homo sapiens, UniProt O60674) | key= CN(C)C(=O)c1ccc(Nc2cc(NCC3CCCC3)c(C(N)=O)cn2)cc1 [Example 96]
Output: 100 to 1000 nM

Input: // lookup IC50 | system=JAK2 (Homo sapiens, UniProt O60674) | key= COCCN(C)C(=O)c1ccc(Nc2cc(NCc3ccccc3)c(C(N)=O)cn2)cc1C [Example 453]
Output: 10 to 100 nM
